Listed molecules paired with reported zone of inhibition at 10 µg/disc
tested on: Staphylococcus aureus; assay: Antibacterial activity against Staphylococcus aureus assessed as growth inhibition at 10 ug/disk; assay type: functional; conditions: read-out: IZ
OBSERVABLE: zone of inhibition at 10 µg/disc (mm)

[[record]]
structure = "NS(=O)(=O)c1sc(Cl)cc1-c1csc(-c2ccccc2COc2ccc(Cl)cc2)n1"
reported_result = 28

[[record]]
structure = "Cc1cccc(OCc2ccccc2-c2nc(CN3CCN(C(c4ccccc4)c4ccccc4)CC3)cs2)c1"
reported_result = 19

[[record]]
structure = "Cc1cccc(OCc2ccccc2-c2nc(-c3ccc(O)c(C(N)=O)c3)cs2)c1"
reported_result = 22

[[record]]
structure = "Cc1ccc(OCc2ccccc2-c2nc(COc3ccc(Cl)cc3)cs2)cc1"
reported_result = 22

